Attribute: QY (quantum yield)
method.description: Photophysical characterization in PBS
Type: physicochemical
setup.conditions: PBS pH 7.4
Value expressed in %; do not type the unit.

Solved cases (3 shown):
| compound | QY (quantum yield), % |
| --- | --- |
| CCC(CC)(NC(=O)c1nn(Cc2cccc(F)c2)c2ccccc12)C(=O)NCCOCCOCCNc1ccc([N+](=O)[O-])c2nonc12 [Compound 36] | 1.50 |
| CCC(CC)(NC(=O)c1cnc(OCCOC)c(-c2ccc(Cl)cc2)n1)C(=O)NCCOCCOCCNc1ccc([N+](=O)[O-])c2nonc12 [Compound 34] | 2.00 |
| CCC(CC)(NC(=O)c1cnc(OCC2CC2)c(-c2ccc(F)cc2)c1)C(=O)NCCOCCOCCNc1ccc([N+](=O)[O-])c2nonc12 [Compound 40] | 1.30 |

For this compound ( CCC(CC)(NC(=O)c1cc(-c2cc(C(F)(F)F)ccc2C(F)(F)F)n(C[C@H]2CCCO2)c1C)C(=O)NCCOCCOCCNc1ccc([N+](=O)[O-])c2n[nH]nc12 [Compound 52] ), measured QY (quantum yield) is 0.10
